test: survival of yeast exposed to agent; assay type: cell-based, Saccharomyces cerevisiae; conditions: yeast strain rs112, 0.01 %
OBSERVED_PROPERTY: viability at 17 h (%)
Just the number please, in %, no unit attached.

Prompt: Please give the documented viability at 17 h of COS(C)(=O)=O [MMS, methyl methane sulphonate]
Response: 87

====

Test: survival of yeast exposed to agent
Format: cell-based, Saccharomyces cerevisiae
Conditions: yeast strain rs112, 0.5 μg/ml
From the text: It is preferred to conduct a preliminary experiment to determine those concentrations of the agent to be tested which should be evaluated in the main experiment. Yeast cells are exposed to a wide range of concentrations of the agent to be tested to determine its cytotoxicity. […] The strain used in this example was RS112 which was obtained by crossing strain RSY6 with strain 428. […] Strains containing the his3Δ-200 mutation are readily available to those skilled in the art.
OBSERVED_PROPERTY: viability at 17 h

Prompt: For the compound O=[N+]([O-])c1cc[n+]([O-])c2ccccc12 [NQO, 4-nitroquinoline-N-oxide] , give its reported viability at 17 h.
Response: 74%
